# System: SK-MES-1
# assay.notes: relative viability (nuclei count vs DMSO), 5 days (fraction); higher = more cells survive
# experimental.parameters: first compound 0.4 µM

>  <compound>
Clc1ccc(Nc2nnc(Cc3ccncc3)c3ccccc23)cc1 [Vatalanib] + CS(=O)(=O)N1CCN(Cc2cc3nc(-c4cccc5[nH]ncc45)nc(N4CCOCC4)c3s2)CC1 [Pictilisib] (partner 1 µM)

>  <relative viability>
0.387

$$$$
>  <compound>
Clc1ccc(Nc2nnc(Cc3ccncc3)c3ccccc23)cc1 [Vatalanib] + COc1cccc2cc(-c3nc([C@H]4CC[C@H](C(=O)O)CC4)n4ncnc(N)c34)[nH]c12 [OSI-027] (partner 0.5 µM)

>  <relative viability>
0.77

$$$$
>  <compound>
Clc1ccc(Nc2nnc(Cc3ccncc3)c3ccccc23)cc1 [Vatalanib] + Nc1nc2[nH]cc(CCc3ccc(C(=O)N[C@@H](CCC(=O)O)C(=O)O)cc3)c2c(=O)[nH]1 [Pemetrexed] (partner 0.2 µM)

>  <relative viability>
1.05

$$$$
>  <compound>
Clc1ccc(Nc2nnc(Cc3ccncc3)c3ccccc23)cc1 [Vatalanib] + C[C@]1(O)C[C@@H](c2nc(-c3ccc4ccc(-c5ccccc5)nc4c3)c3c(N)nccn32)C1 [Linsitinib] (partner 1 µM)

>  <relative viability>
1.17

$$$$
>  <compound>
COc1cc(N2CCC(C(N)=O)CC2)ccc1Nc1nc(N)c(Cl)c(Nc2ccccc2S(=O)(=O)C(C)C)n1 [HG-5-88-01] + C[C@]1(O)C[C@@H](c2nc(-c3ccc4ccc(-c5ccccc5)nc4c3)c3c(N)nccn32)C1 [Linsitinib] (partner 1 µM)

>  <relative viability>
1.08

$$$$
>  <compound>
C[C@@H]1CN(CC(=O)Nc2ccc3c(c2)Cc2cccc(-c4cc(=O)cc(N5CCOCC5)o4)c2S3)C[C@H](C)O1 + Cc1nc(NC(=O)N2CCC[C@H]2C(N)=O)sc1-c1ccnc(C(C)(C)C(F)(F)F)c1 [Alpelisib] (partner 2 µM)

>  <relative viability>
1.02

$$$$
>  <compound>
C[C@@H]1CN(CC(=O)Nc2ccc3c(c2)Cc2cccc(-c4cc(=O)cc(N5CCOCC5)o4)c2S3)C[C@H](C)O1 + COc1cc2c(Oc3ccc(NC(=O)C4(C(=O)Nc5ccc(F)cc5)CC4)cc3F)ccnc2cc1OCCCN1CCOCC1 [Foretinib] (partner 0.25 µM)

>  <relative viability>
0.76

$$$$
>  <compound>
COc1cc(N2CCC(C(N)=O)CC2)ccc1Nc1nc(N)c(Cl)c(Nc2ccccc2S(=O)(=O)C(C)C)n1 [HG-5-88-01] + N=C(N)NC(=N)NCCc1ccccc1 [Phenformin] (partner 250 µM)

>  <relative viability>
0.652

$$$$
>  <compound>
Clc1ccc(Nc2nnc(Cc3ccncc3)c3ccccc23)cc1 [Vatalanib] + N=C(N)NC(=N)NCCc1ccccc1 [Phenformin] (partner 250 µM)

>  <relative viability>
0.753

$$$$

---

Item-by-item account of relative viability
# System: NCI-H2405
# assay.notes: relative viability (nuclei count vs DMSO), 5 days (fraction); higher = more cells survive
# experimental.parameters: first compound 2.53 µM

>  <molecule>
CCCCCCCCCCCC1=C(O)C(=O)C=C(O)C1=O [Embelin] + Nc1ncn([C@H]2C[C@H](O)[C@@H](CO)O2)c(=O)n1 [Decitabine] (partner 2 µM)

>  <relative viability>
0.738

$$$$
>  <molecule>
CCCCCCCCCCCC1=C(O)C(=O)C=C(O)C1=O [Embelin] + C[C@]1(O)C[C@@H](c2nc(-c3ccc4ccc(-c5ccccc5)nc4c3)c3c(N)nccn32)C1 [Linsitinib] (partner 1 µM)

>  <relative viability>
0.973

$$$$
>  <molecule>
CCCCCCCCCCCC1=C(O)C(=O)C=C(O)C1=O [Embelin] + COc1cc2c(Oc3ccc(NC(=O)C4(C(=O)Nc5ccc(F)cc5)CC4)cc3F)ccnc2cc1OCCCN1CCOCC1 [Foretinib] (partner 0.25 µM)

>  <relative viability>
1.11

$$$$

---

# System: 201T
# assay.notes: relative viability (nuclei count vs DMSO), 5 days (fraction); higher = more cells survive
# experimental.parameters: first compound 8 µM
Item-by-item account of relative viability
test.readout: relative viability

>  <compound>
CCCCCCCCCCCC1=C(O)C(=O)C=C(O)C1=O [Embelin] + Nc1nc2[nH]cc(CCc3ccc(C(=O)N[C@@H](CCC(=O)O)C(=O)O)cc3)c2c(=O)[nH]1 [Pemetrexed] (partner 0.2 µM)

>  <reading>
0.299

$$$$
>  <compound>
CCCCCCCCCCCC1=C(O)C(=O)C=C(O)C1=O [Embelin] + Cc1nc(NC(=O)N2CCC[C@H]2C(N)=O)sc1-c1ccnc(C(C)(C)C(F)(F)F)c1 [Alpelisib] (partner 2 µM)

>  <reading>
0.971

$$$$
>  <compound>
CCCCCCCCCCCC1=C(O)C(=O)C=C(O)C1=O [Embelin] + COc1cccc2cc(-c3nc([C@H]4CC[C@H](C(=O)O)CC4)n4ncnc(N)c34)[nH]c12 [OSI-027] (partner 0.5 µM)

>  <reading>
0.83

$$$$
>  <compound>
CCCCCCCCCCCC1=C(O)C(=O)C=C(O)C1=O [Embelin] + Cc1cc(Nc2cc(N3CCN(C)CC3)nc(Sc3ccc(NC(=O)C4CC4)cc3)n2)n[nH]1 [Tozasertib] (partner 0.1 µM)

>  <reading>
1.06

$$$$
>  <compound>
CCCCCCCCCCCC1=C(O)C(=O)C=C(O)C1=O [Embelin] + CC1(C)CCC(c2ccc(Cl)cc2)=C(CN2CCN(c3ccc(C(=O)NS(=O)(=O)c4ccc(N[C@H](CCN5CCOCC5)CSc5ccccc5)c(S(=O)(=O)C(F)(F)F)c4)cc3)CC2)C1 [Navitoclax] (partner 0.5 µM)

>  <reading>
1.17

$$$$
>  <compound>
CCCCCCCCCCCC1=C(O)C(=O)C=C(O)C1=O [Embelin] + Nc1ncn([C@H]2C[C@H](O)[C@@H](CO)O2)c(=O)n1 [Decitabine] (partner 2 µM)

>  <reading>
0.831

$$$$
>  <compound>
CCCCCCCCCCCC1=C(O)C(=O)C=C(O)C1=O [Embelin] + CS(=O)(=O)CCNCc1ccc(-c2ccc3ncnc(Nc4ccc(OCc5cccc(F)c5)c(Cl)c4)c3c2)o1 [Lapatinib] (partner 2 µM)

>  <reading>
0.99

$$$$
>  <compound>
CCCCCCCCCCCC1=C(O)C(=O)C=C(O)C1=O [Embelin] + C[C@]1(O)C[C@@H](c2nc(-c3ccc4ccc(-c5ccccc5)nc4c3)c3c(N)nccn32)C1 [Linsitinib] (partner 1 µM)

>  <reading>
1.01

$$$$

---

# Test system: EMC-BAC-2
# assay.notes: relative viability (nuclei count vs DMSO), 5 days (fraction); higher = more cells survive
# experimental.parameters: first compound 0.4 µM
test.readout: relative viability

>  <compound>
C[C@@H]1CN(CC(=O)Nc2ccc3c(c2)Cc2cccc(-c4cc(=O)cc(N5CCOCC5)o4)c2S3)C[C@H](C)O1 + COc1cc2c(Oc3ccc(NC(=O)C4(C(=O)Nc5ccc(F)cc5)CC4)cc3F)ccnc2cc1OCCCN1CCOCC1 [Foretinib] (partner 0.25 µM)

>  <experimental.target>
EMC-BAC-2

>  <reading>
0.998

$$$$
>  <compound>
Clc1ccc(Nc2nnc(Cc3ccncc3)c3ccccc23)cc1 [Vatalanib] + C[C@@H](Oc1cc(-c2cnn(C3CCNCC3)c2)cnc1N)c1c(Cl)ccc(F)c1Cl [Crizotinib] (partner 1 µM)

>  <experimental.target>
EMC-BAC-2

>  <reading>
0.75

$$$$
>  <compound>
Clc1ccc(Nc2nnc(Cc3ccncc3)c3ccccc23)cc1 [Vatalanib] + CS(=O)(=O)CCNCc1ccc(-c2ccc3ncnc(Nc4ccc(OCc5cccc(F)c5)c(Cl)c4)c3c2)o1 [Lapatinib] (partner 2 µM)

>  <experimental.target>
EMC-BAC-2

>  <reading>
0.919

$$$$

---

# System: COR-L23
# assay.notes: relative viability (nuclei count vs DMSO), 5 days (fraction); higher = more cells survive
# experimental.parameters: first compound 0.1265 µM
I'd appreciate it if you marked entries Condition met when relative viability is lower than 0.7 and Condition not met when it is not.

>  <compound>
C[C@@H]1CN(CC(=O)Nc2ccc3c(c2)Cc2cccc(-c4cc(=O)cc(N5CCOCC5)o4)c2S3)C[C@H](C)O1 + COc1cc2c(Oc3ccc(NC(=O)C4(C(=O)Nc5ccc(F)cc5)CC4)cc3F)ccnc2cc1OCCCN1CCOCC1 [Foretinib] (partner 0.25 µM)

>  <answer.label>
Condition not met

$$$$
>  <compound>
COc1cc(N2CCC(C(N)=O)CC2)ccc1Nc1nc(N)c(Cl)c(Nc2ccccc2S(=O)(=O)C(C)C)n1 [HG-5-88-01] + CS(=O)(=O)N1CCN(Cc2cc3nc(-c4cccc5[nH]ncc45)nc(N4CCOCC4)c3s2)CC1 [Pictilisib] (partner 1 µM)

>  <answer.label>
Condition not met

$$$$
>  <compound>
C[C@@H]1CN(CC(=O)Nc2ccc3c(c2)Cc2cccc(-c4cc(=O)cc(N5CCOCC5)o4)c2S3)C[C@H](C)O1 + CC(=O)Nc1cccc(-n2c(=O)n(C3CC3)c(=O)c3c(Nc4ccc(I)cc4F)n(C)c(=O)c(C)c32)c1 [Trametinib] (partner 0.02 µM)

>  <answer.label>
Condition met

$$$$
>  <compound>
COc1cc(N2CCC(C(N)=O)CC2)ccc1Nc1nc(N)c(Cl)c(Nc2ccccc2S(=O)(=O)C(C)C)n1 [HG-5-88-01] + CC1(C)CCC(c2ccc(Cl)cc2)=C(CN2CCN(c3ccc(C(=O)NS(=O)(=O)c4ccc(N[C@H](CCN5CCOCC5)CSc5ccccc5)c(S(=O)(=O)C(F)(F)F)c4)cc3)CC2)C1 [Navitoclax] (partner 0.5 µM)

>  <answer.label>
Condition not met

$$$$
>  <compound>
Clc1ccc(Nc2nnc(Cc3ccncc3)c3ccccc23)cc1 [Vatalanib] + O=C(c1cc(Cc2n[nH]c(=O)c3ccccc23)ccc1F)N1CCN(C(=O)C2CC2)CC1 [Olaparib] (partner 8 µM)

>  <answer.label>
Condition met

$$$$

Value source: the supplement of paper PMC10307832
